# tested-target: UniProtKB P41594
# test-description: mGlu5 NAM FLIPR Assay (Assay 1)
# recorded-conditions: HEK293 cells stably expressing human mGlu5a; antagonism of EC90 glutamate, [Ca]i
So basically, if IC50 comes in under 700 nM it's yes, and if it's 700 nM or more it's no.

> print(dat)
                                    compound  answer.label
 1  O=C(c1cc2ncc(Br)cn2n1)N1CCCCC1 [Example 4-21, reference compound]            no
 2  Cc1cc(C(F)(F)F)n2nc(C(=O)N3CCc4ncsc4CC3)cc2n1 [D, reference compound]            no
 3  COCc1nc2c(s1)CCN(C(=O)c1cc3ncc(Br)cn3n1)CC2 [Example 8]            no
 4  CC(C)c1nc2c(s1)CCN(C(=O)c1cc3ncc(Br)cn3n1)CC2 [Example 12]           yes
 5  O=C(c1cc2ncc(Br)cn2n1)N1CCc2[nH]c(=O)sc2CC1 [Example 11]           yes
 6  Cc1cnc2cc(C(=O)N3CCc4ncsc4CC3)nn2c1 [Example 9]            no
 7  O=C(c1cc2ncc(Br)cn2n1)N1CCOCC1 [Example 4-22, reference compound]            no
 8  Cn1c2c(c3ccccc31)CCN(C(=O)c1cc3ncc(Br)cn3n1)CC2 [Example 17]           yes
 9  O=C(c1cc2ncc(Br)cn2n1)N1CCCC1 [A, reference compound]            no
10  COc1cccc(-c2cc(C(F)(F)F)n3nc(C(=O)N4CCc5ncsc5CC4)cc3n2)c1 [E, reference compound]            no
11  O=C(c1cc2ncc(Br)cn2n1)N1CCc2cc(Cl)nnc2CC1 [Example 7]           yes
12  Cc1nc2c(s1)CCN(C(=O)c1cc3ncc(Cl)cn3n1)CC2 [Example 13]           yes
13  CCc1nc2c(s1)CCN(C(=O)c1cc3ncc(Br)cn3n1)CC2 [Example 4]           yes
14  Cn1c2c(sc1=O)CCN(C(=O)c1cc3ncc(Br)cn3n1)CC2 [Example 16]            no
15  O=C(c1cc2ncc(Br)cn2n1)N1CCc2ccc(Cl)nc2CC1 [Example 1]           yes

* * *

// reported pIC50 per item
# tested-target: human mGlu5a receptor (Homo sapiens (Human))
# Sequence (P41594 other isoform, or with tags, fused parts or gaps): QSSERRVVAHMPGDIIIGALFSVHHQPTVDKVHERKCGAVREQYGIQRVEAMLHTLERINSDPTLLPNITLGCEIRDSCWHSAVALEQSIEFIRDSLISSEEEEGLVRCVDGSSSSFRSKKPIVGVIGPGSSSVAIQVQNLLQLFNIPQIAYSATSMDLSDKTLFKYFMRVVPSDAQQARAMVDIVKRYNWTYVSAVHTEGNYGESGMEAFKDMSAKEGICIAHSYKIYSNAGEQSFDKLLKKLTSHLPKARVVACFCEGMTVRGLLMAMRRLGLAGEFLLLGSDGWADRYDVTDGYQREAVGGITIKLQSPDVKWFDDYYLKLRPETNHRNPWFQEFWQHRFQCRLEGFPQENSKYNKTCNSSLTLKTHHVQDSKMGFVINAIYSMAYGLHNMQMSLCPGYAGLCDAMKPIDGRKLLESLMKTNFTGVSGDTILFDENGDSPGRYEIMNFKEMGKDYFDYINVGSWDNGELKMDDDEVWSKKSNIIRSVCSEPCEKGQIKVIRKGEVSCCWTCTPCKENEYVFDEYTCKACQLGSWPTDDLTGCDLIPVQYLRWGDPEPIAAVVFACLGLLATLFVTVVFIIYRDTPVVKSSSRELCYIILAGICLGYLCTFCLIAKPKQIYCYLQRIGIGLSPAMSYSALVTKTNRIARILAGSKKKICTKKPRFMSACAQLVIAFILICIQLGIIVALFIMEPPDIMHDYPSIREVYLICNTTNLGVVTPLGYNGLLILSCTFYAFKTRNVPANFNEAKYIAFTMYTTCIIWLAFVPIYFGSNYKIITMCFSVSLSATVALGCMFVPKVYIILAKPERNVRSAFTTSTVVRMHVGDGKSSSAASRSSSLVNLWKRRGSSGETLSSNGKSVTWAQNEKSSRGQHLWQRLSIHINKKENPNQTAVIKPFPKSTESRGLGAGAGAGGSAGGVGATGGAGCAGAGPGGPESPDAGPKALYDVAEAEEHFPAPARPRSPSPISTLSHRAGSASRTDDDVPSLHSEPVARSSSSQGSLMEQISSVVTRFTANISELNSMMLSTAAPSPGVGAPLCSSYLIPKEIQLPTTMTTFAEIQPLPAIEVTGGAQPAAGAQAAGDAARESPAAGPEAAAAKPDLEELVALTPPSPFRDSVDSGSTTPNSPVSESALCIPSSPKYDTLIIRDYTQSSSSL
# test-description: mGlu5 NAM FLIPR Assay (Assay 1)
# recorded-conditions: HEK293 cells stably expressing human mGlu5a; antagonism of EC90 glutamate, [Ca]i
pIC50: −log10 of the molar value.
property-label: pIC50

> print(dat)
                                   compound  property.label  comparison.symbol  measured.value
1  O=C(c1cc2ncc(Cl)cn2n1)N1CCc2[nH]c(=O)sc2CC1 [Example 19]           pIC50                  =            6.89
2  COc1ccc(-c2cc(C(F)(F)F)n3nc(C(=O)N4CCc5ncsc5CC4)cc3n2)cc1 [C, reference compound]           pIC50                  <            5.00
3  COc1ccc2c(n1)CCN(C(=O)c1cc3ncc(Br)cn3n1)CC2 [Example 2]           pIC50                  =            6.64
4  O=C(c1cc2ncc(Br)cn2n1)N1CCc2ccsc2CC1 [Example 3]           pIC50                  =            5.86
5  O=C(c1cc2ncc(Cl)cn2n1)N1CCc2ncsc2CC1 [Example 10]           pIC50                  =            7.23
6  O=C(c1cc2ncc(Br)cn2n1)N1CCc2ncsc2CC1 [Example 5]           pIC50                  =            6.96
7  O=C(c1cc2ncc(Br)cn2n1)N1CCCCCC1 [B, reference compound]           pIC50                  <            5.00
8  O=C(c1cc2ncc(Br)cn2n1)N1CCc2cccnc2CC1 [Example 14]           pIC50                  =            6.22
9  CC(C)c1nc2c(s1)CCN(C(=O)c1cc3ncc(Cl)cn3n1)CC2 [Example 18]           pIC50                  =            6.63
